# key: entry, value: inhibition
tested on: PRKACA (mouse); test: split-luciferase competition binding; conditions: compound 10.0 µM; accession and sequence are those of the human protein
Output spec: scalar in %, unitless text.

[[record]]
mol = "N#CC(=C(\\N)Sc1ccccc1N)/C(C#N)=C(/N)Sc1ccccc1N"
unit_string = "%"
meas_value = 0

[[record]]
mol = "COc1ccc(Cl)cc1NC(=O)Nc1cc(C)nc2ccccc12"
unit_string = "%"
meas_value = 5

[[record]]
mol = "Cc1cc(F)c(Nc2ncnc3cc(OCc4ccccc4)ccc23)cc1O"
unit_string = "%"
meas_value = 2

[[record]]
mol = "Cc1cc2nc3c(=O)[nH]c(=O)nc-3n(C)c2cc1C=O"
unit_string = "%"
meas_value = 11

[[record]]
mol = "NC(=O)c1sc(-c2ccsc2)cc1N"
unit_string = "%"
meas_value = 0


input: Hello, please tell me recorded inhibition for this one: O=S(=O)(NCCNC/C=C/c1ccc(Br)cc1)c1cccc2cnccc12
output: 67

input: Hello, please tell me recorded inhibition for this one: CC(C)(C)n1nc(-c2ccc(Cl)cc2)c2c(N)ncnc21
output: 30

input: Hello, please tell me recorded inhibition for this one: NC(=O)c1ccc(-c2nc(-c3ccccn3)c(-c3ccc4c(c3)OCCO4)[nH]2)cc1
output: 0
